Test system: U2OS
Test: Multiplex assay against U2OS
Type: toxicity, cell-based
Details: human, 12 h, 10 µM, compound concentration 10 uM, replicate 2
property-name: Total Cell Count
# print the numeric value only

compound | system-tested | Total Cell Count
Br.CS(=O)(=O)Nc1c(O)ccc2c1CCCC2C1=NCCN1 (stereo not drawn) | U2OS | 84

Which Total Cell Count is reported with U2OS for this entry: Cl.N=C(N)NC(=O)Cc1c(Cl)cccc1Cl [GUANFACINE HYDROCHLORIDE] ?
130

Which Total Cell Count is reported with U2OS for this entry: CN(C)C(=O)Cn1cc(-c2ccc(-c3cncc4ccccc34)cc2)cn1 ?
98

Hi! What's the reported Total Cell Count for CC(=O)Nc1cccc2c1c(Sc1ccc(Cl)cc1)c(C)n2CC(=O)O [AZD1981] on U2OS?
122

Lookup: Total Cell Count / U2OS / O=C(CCCc1ccccc1)Nc1nc2ccccc2c(=O)s1
101

Please state recorded Total Cell Count (tested on U2OS) of Cl.NCCc1ccc(O)c(O)c1 [DOPAMINE HYDROCHLORIDE]
95

Give Total Cell Count (U2OS) of the following compound: CCCCC1=NC2(CCCC2)C(=O)N1Cc1ccc(-c2ccccc2-c2nnn[nH]2)cc1 [IRBESARTAN]
100

Can you look up Total Cell Count on U2OS for CC(C)c1noc(N2CCC(COc3ccc(-c4ccc(S(C)(=O)=O)cc4)nc3)CC2)n1 [GSK-1292263] ?
134

What Total Cell Count appears in the records for this compound with U2OS? NCCc1cn(S(=O)(=O)c2c(Cl)nc3sccn23)c2ccccc12.O=C(O)C(=O)O
115

API: value(readout= Total Cell Count, system= U2OS, query= Cc1cccc(NC(=O)CN2CCC(c3ccccn3)CC2)c1.Cl.Cl )
111

Hi! What's the reported Total Cell Count for CCCOc1ccc2[nH]cc(C3=CCNCC3)c2n1.Cl on U2OS?
134

Can you look up Total Cell Count on U2OS for CC(C)COc1ccc(CNC(=O)N(Cc2ccc(F)cc2)C2CCN(C)CC2)cc1 [PIMAVANSERIN] ?
124

Param readout= Total Cell Count; system= U2OS; entry= CC(/C=C1\SC(=S)N(CCCC(=O)Nc2ccc(C(=O)O)c(O)c2)C1=O)=C\c1ccccc1 ; returns value.
101

Field: Total Cell Count (U2OS). Entry: O=C1[C@H](Cc2ccc(O)cc2)N2C(=O)CCN(C(=O)NCc3ccccc3)[C@H]2CN1Cc1cccc2ccccc12
88

Missing value: Total Cell Count, U2OS, entry CC(C)(C)c1cc(NC(=O)Nc2ccc(-c3cn4c(n3)sc3cc(OCCN5CCOCC5)ccc34)cc2)no1 [QUIZARTINIB] . Fill in?
100

Give the reported Total Cell Count for CN1CCN(c2cc(-c3ccccc3)nc(N)n2)CC1 (system: U2OS).
139

// lookup Total Cell Count | system=U2OS | key= COc1ccccc1N1CCN(C[C@@H](C(=O)NC(C)(C)C)c2ccccc2)CC1.Cl.Cl
102

Which Total Cell Count is reported with U2OS for this entry: Cc1onc(-c2ccccc2Cl)c1C(=O)N(C)c1ccc(Cl)cc1 ?
113

// lookup Total Cell Count | system=U2OS | key= O=C(NCCN1CCC(n2c(=O)[nH]c3cc(Cl)ccc32)CC1)c1ccc(F)cc1 [HALOPEMIDE]
152

Notebook entry, U2OS assay: Total Cell Count of N#Cc1cc(F)cc(-c2nc(-c3ccc(F)cn3)no2)c1 = ?
151

Provide the documented Total Cell Count with U2OS as the system for CCCCC(=O)N(Cc1ccc(-c2ccccc2-c2nnn[nH]2)cc1)[C@H](C(=O)O)C(C)C
108

Lab request: please report Total Cell Count under test system U2OS for CCc1cc2cc(NS(=O)(=O)c3ccc(C#N)cc3)ccc2n(CC)c1=O
139

Report Total Cell Count for COc1cccc2c1c(NS(=O)(=O)c1ccc(Cl)s1)nn2Cc1cccc(CNC(=O)C(C)(C)O)c1 tested on U2OS.
140
